# System: rabbit anti-SDMA antibody in serum, Rabbit # 157 (SDMA conjugated with BSA immunogen)
# Assay explanation: Competitive ELISA, specificity of anti-SDMA antibody, Rabbit # 157
# Format: binding
# Assay context: Rabbit # 157 (1:15K); competition with SDMA-HRP conjugate
Quantity name: IC 50

Look over these answered cases.
- Compound: "CN(C)C(=N)NCCCC(N)C(=O)O (stereo not shown) [ADMA, asymmetrical dimethylarginine]"
  IC 50: ">100 µg/mL"
- Compound: "CNC(=N)NCCCC(N)C(=O)O (stereo not shown) [N-MMA, N-monomethylarginine]"
  IC 50: ">100 µg/mL"

Would you kindly share the measured IC 50 for N=C(N)NCCC[C@H](N)C(=O)O [L-Arginine, arginine] ?
>100 µg/mL

Would you kindly share the measured IC 50 for C/N=C(\NC)NCCCC(N)C(=O)O (stereo not shown) [SDMA, symmetrical dimethylarginine] ?
1.6 µg/mL

* * *

# System: rabbit anti-SDMA antibody in serum, Rabbit # 153 (SDMA conjugated with KLH immunogen)
# Assay explanation: Competitive ELISA, specificity of anti-SDMA antibody, Rabbit # 153
# Type: binding
# Assay context: Rabbit # 153 (1:2.5K); competition with SDMA-HRP conjugate
# Procedure: In order to assess the specificity of the antibodies obtained by the procedures described in Example 3 above, their reactivity to SDMA, ADMA, L-arginine, and/or N-methylarginine was measured in a competitive ELISA assay (Table 1). […] 100 μl of 3,3′,5,5′-Tetramethylbenzidine (commercially available from Promega Corporation of Madison, Wis.) was subsequently added. […] The data was subjected to quantification using Softmax software (Molecular Devices, Sunnyvale, Calif.). […]
Reported IC 50 by item:

Look over these answered cases.
- Molecule: "CN(C)C(=N)NCCCC(N)C(=O)O (stereo not shown)"
  Quantity name: "IC 50"
  Reading: ">100 µg/mL"
- Molecule: "CNC(=N)NCCCC(N)C(=O)O (stereo not shown)"
  Quantity name: "IC 50"
  Reading: ">100 µg/mL"
- Molecule: "C/N=C(\\NC)NCCCC(N)C(=O)O (stereo not shown)"
  Quantity name: "IC 50"
  Reading: "0.65 µg/mL"

Now for the molecule whose IC 50 we want.
Look up IC 50 with rabbit anti-SDMA antibody in serum, Rabbit # 153 (SDMA conjugated with KLH immunogen) for this molecule: N=C(N)NCCC[C@H](N)C(=O)O
>100 µg/mL

* * *

# System: rabbit anti-SDMA antibody in serum, Rabbit # 156 (SDMA conjugated with BSA immunogen)
# Assay explanation: Competitive ELISA, specificity of anti-SDMA antibody, Rabbit # 156
# Type: binding
# Assay context: Rabbit # 156 (1:20K); competition with SDMA-HRP conjugate
# Method: In order to assess the specificity of the antibodies obtained by the procedures described in Example 3 above, their reactivity to SDMA, ADMA, L-arginine, and/or N-methylarginine was measured in a competitive ELISA assay (Table 1). […] 100 μl of 3,3′,5,5′-Tetramethylbenzidine (commercially available from Promega Corporation of Madison, Wis.) was subsequently added. […] The data was subjected to quantification using Softmax software (Molecular Devices, Sunnyvale, Calif.). […]
Quantity name: IC 50

- Molecule: "N=C(N)NCCC[C@H](N)C(=O)O"
  Quantity name: "IC 50"
  Reading: ">100 µg/mL"
- Molecule: "CN(C)C(=N)NCCCC(N)C(=O)O (stereo not shown)"
  Quantity name: "IC 50"
  Reading: ">100 µg/mL"
- Molecule: "CNC(=N)NCCCC(N)C(=O)O (stereo not shown)"
  Quantity name: "IC 50"
  Reading: ">100 µg/mL"

Now for the molecule whose IC 50 we want.
Would you kindly share the measured IC 50 for C/N=C(\NC)NCCCC(N)C(=O)O (stereo not shown) ?
1.3 µg/mL

* * *

# System: rabbit anti-SDMA antibody in serum, Rabbit # 155 (SDMA conjugated with BSA immunogen)
# Assay explanation: Competitive ELISA, specificity of anti-SDMA antibody, Rabbit # 155
# Format: binding
# Assay context: Rabbit # 155 (1:3K); competition with SDMA-HRP conjugate
Quantity name: IC 50

- Molecule: "CNC(=N)NCCCC(N)C(=O)O (stereo not shown)"
  Target or system: "rabbit anti-SDMA antibody in serum, Rabbit # 155 (SDMA conjugated with BSA immunogen)"
  Quantity name: "IC 50"
  Reading: "79 µg/mL"
- Molecule: "C/N=C(\\NC)NCCCC(N)C(=O)O (stereo not shown)"
  Target or system: "rabbit anti-SDMA antibody in serum, Rabbit # 155 (SDMA conjugated with BSA immunogen)"
  Quantity name: "IC 50"
  Reading: "0.73 µg/mL"
- Molecule: "N=C(N)NCCC[C@H](N)C(=O)O"
  Target or system: "rabbit anti-SDMA antibody in serum, Rabbit # 155 (SDMA conjugated with BSA immunogen)"
  Quantity name: "IC 50"
  Reading: ">100 µg/mL"

Now for the molecule whose IC 50 we want.
Would you kindly share the measured IC 50 for CN(C)C(=N)NCCCC(N)C(=O)O (stereo not shown) ?
>100 µg/mL

* * *

# Tested on: rabbit anti-SDMA antibody in serum, Rabbit # 156 (SDMA conjugated with BSA immunogen)
# Assay explanation: Competitive ELISA, specificity of anti-SDMA antibody, Rabbit # 156
# Format: binding
# Assay context: Rabbit # 156 (1:20K)
# Procedure: In order to assess the specificity of the antibodies obtained by the procedures described in Example 3 above, their reactivity to SDMA, ADMA, L-arginine, and/or N-methylarginine was measured in a competitive ELISA assay (Table 1). […] 100 μl of 3,3′,5,5′-Tetramethylbenzidine (commercially available from Promega Corporation of Madison, Wis.) was subsequently added. […] The data was subjected to quantification using Softmax software (Molecular Devices, Sunnyvale, Calif.). […]
Reported % Cross Reactivity by item:

- Compound: "CNC(=N)NCCCC(N)C(=O)O (stereo not shown)"
  % Cross Reactivity: "<1%"

Would you kindly share the measured % Cross Reactivity for C/N=C(\NC)NCCCC(N)C(=O)O (stereo not shown) ?
100%

Would you kindly share the measured % Cross Reactivity for N=C(N)NCCC[C@H](N)C(=O)O ?
<1%

Would you kindly share the measured % Cross Reactivity for CN(C)C(=N)NCCCC(N)C(=O)O (stereo not shown) ?
<1%
